# TGT: SinvNPC2a (Solenopsis invicta, UniProt Z9QIP2HJ34)
# Construct: recombinant from pET28a in E. coli BL21(DE3) pLysS, soluble, Ni-IDA purified
# Sequence (Z9QIP2HJ34 21-153 limits assumed): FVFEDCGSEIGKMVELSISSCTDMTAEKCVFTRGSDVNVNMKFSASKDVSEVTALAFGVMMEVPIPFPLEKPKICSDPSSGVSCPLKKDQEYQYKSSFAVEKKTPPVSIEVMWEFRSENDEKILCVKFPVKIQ
# TEST SUMMARY: fluorescence competitive binding assay, 1-NPN displacement
pKi: −log10 of the molar value.

# INPUT SMILES, pKi
measured = [
    ("CCc1nc(C)cnc1C", 5.29),
]

###

# TGT: SinvNPC2a (Solenopsis invicta)
# Construct: recombinant from pET28a in E. coli BL21(DE3) pLysS, soluble, Ni-IDA purified
# TEST SUMMARY: fluorescence competitive binding assay, 1-NPN displacement
pIC50: −log10 of the molar value.

# INPUT SMILES, TGT, pIC50
records = [
    ("CCc1nc(C)cnc1C", "SinvNPC2a (Solenopsis invicta)", 5.01),
]
